The measurements presented in this section are drawn from the supplement of paper PMC10567573.

B1: PCMTD2 (parent)
chain: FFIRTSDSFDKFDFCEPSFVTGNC

- Variants of: B1
- Test details: protein stability index of a GFP-peptide fusion (GPS, HEK-293T) (PSI 1-6); higher = more stable;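 also: lentivirally expressed fusions sorted by FACS into six bins by GFP to DsRed ratio, PSI derived from sequencing read proportions per bin multiplied by bin number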
- Reported conditions: c terminus: a fixed tail appended
Quantity measured: protein stability index

>>> assay_value("K11A")
2.13
>>> assay_value("D7Y")
2.41
>>> assay_value("C15I")
3.14
